# Tested on: Erythrocyte
# method-summary: Hemolytic activity against mouse RBC measured after 1 hrs
# Assay type: toxicity, cell-based
Square brackets hold non-standard residues; d marks the D form. Peptide text beside a SMILES is read from it. ξ: configuration not given here. ξK = NCCCCC(N)C(=O)O
experimental-endpoint: MHC10

Measured MHC10 of CC[C@H](C)[C@H](NC(=O)[C@@H]1CCCN1C(=O)[C@H](CCC(=O)O)NC(=O)[C@@H](N)Cc1ccccc1)C(=O)N[C@H](C(=O)N[C@@H](C)C(=O)N[C@@H](CCCCN)C(=O)N[C@@H](CC(C)C)C(=O)N[C@@H](CC(C)C)C(=O)N[C@@H](CO)C(=O)NCC(=O)N[C@@H](CC(C)C)C(=O)N[C@@H](CC(C)C)C(N)=O)C(C)C (H-FEPIVAKLLSGLL-NH2) : > 256 µM

Measured MHC10 of CC(C)C[C@H](NC(=O)[C@H](CC(C)C)NC(=O)C(CCCCN)NC(=O)[C@H](CCC(=O)O)NC(=O)[C@H](CC(C)C)NC(=O)[C@H](CC(C)C)NC(=O)[C@H](CCCCN)NC(=O)[C@H](CCCCN)NC(=O)[C@@H](NC(=O)[C@H](CCCCN)NC(=O)[C@@H]1CCCN1C(=O)[C@H](CC(C)C)NC(=O)[C@@H](N)Cc1ccccc1)C(C)C)C(N)=O (stereo partly drawn) (H-FLPKVKKLLE[ξK]LL-NH2) : > 256 µM

Measured MHC10 of CC(C)C[C@H](NC(=O)[C@H](CC(C)C)NC(=O)CNC(=O)[C@H](CCC(=O)O)NC(=O)[C@H](CC(C)C)NC(=O)[C@H](CC(C)C)NC(=O)[C@H](CCCCN)NC(=O)[C@H](CCCCN)NC(=O)[C@@H](NC(=O)[C@H](CCCCN)NC(=O)[C@@H]1CCCN1C(=O)[C@H](CC(C)C)NC(=O)[C@@H](N)Cc1ccccc1)C(C)C)C(N)=O (H-FLPKVKKLLEGLL-NH2) : > 256 µM

====

# method-summary: Acute toxicity in BALB/c mouse assessed as mortality at 80 mg/kg, ip administered as single dose measured for 7 days
# Assay type: organism-based
# recorded-conditions: BALB/c, in vivo, time 7 day, read-out: Activity
Peptide text beside a SMILES is read from it.
experimental-endpoint: mortality at 168 h (%)
Report the value in % with no unit label.

Measured mortality at 168 h of CC(C)C[C@H](NC(=O)[C@H](CC(C)C)NC(=O)[C@H](CCC(=O)O)NC(=O)[C@H](CCCCN)NC(=O)[C@H](CC(C)C)NC(=O)[C@H](CC(C)C)NC(=O)[C@H](CCCCN)NC(=O)[C@H](C)NC(=O)[C@@H](NC(=O)[C@H](CCCCN)NC(=O)[C@@H]1CCCN1C(=O)[C@H](CC(C)C)NC(=O)[C@@H](N)Cc1ccccc1)C(C)C)C(N)=O (H-FLPKVAKLLKELL-NH2) : 40

Measured mortality at 168 h of CC[C@H](C)[C@H](NC(=O)[C@@H]1CCCN1C(=O)[C@H](CC(C)C)NC(=O)[C@@H](N)Cc1ccccc1)C(=O)N[C@H](C(=O)N[C@@H](C)C(=O)N[C@@H](CCCCN)C(=O)N[C@@H](CC(C)C)C(=O)N[C@@H](CC(C)C)C(=O)N[C@@H](CO)C(=O)NCC(=O)N[C@@H](CC(C)C)C(=O)N[C@@H](CC(C)C)C(N)=O)C(C)C (H-FLPIVAKLLSGLL-NH2) : 100

Hello, the source for this data is ChEMBL document CHEMBL5108051, in case you need it.
